Molecular target: T1, monkey TIM-3 protein with hFc tag (cTIM-3-hFc protein) (monkey; human)
T1 construct: Made in HEK293 cells; also called monkey TIM-3 extracellular domain protein; not shown: human IgG Fc fragment (hFc) of the pCpC vector
T1 chain: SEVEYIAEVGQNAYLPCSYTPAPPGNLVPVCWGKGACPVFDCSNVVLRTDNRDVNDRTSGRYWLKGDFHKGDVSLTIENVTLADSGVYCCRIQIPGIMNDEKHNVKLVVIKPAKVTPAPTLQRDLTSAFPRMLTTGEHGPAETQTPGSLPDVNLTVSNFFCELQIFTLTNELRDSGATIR
Experiment: ELISA, coated cTIM-3-hFc; antibody 66.667 nM
value-kind: OD450
Would you mind answering with just the numeric figure?

-- ask For 7A4F10 (TIM-3 antibody purified from hybridoma, chimeric antibody of Example 2) (antibody, V domains shown, From hybridoma of Harbour H2L2 transgenic mice: human variable regions, rat constant regions) VH: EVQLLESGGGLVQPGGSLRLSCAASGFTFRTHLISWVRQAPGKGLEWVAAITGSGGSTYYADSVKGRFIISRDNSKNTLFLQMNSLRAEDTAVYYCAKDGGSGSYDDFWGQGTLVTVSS VL: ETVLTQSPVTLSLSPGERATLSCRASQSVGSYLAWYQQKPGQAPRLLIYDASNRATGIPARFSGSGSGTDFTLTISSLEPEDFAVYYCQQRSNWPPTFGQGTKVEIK , what is its reported OD450?
-- reply 3.46

-- ask // lookup OD450 for 57F4E5 (TIM-3 antibody purified from hybridoma, chimeric antibody of Example 2) (antibody, V domains shown, From hybridoma of Harbour H2L2 transgenic mice: human variable regions, rat constant regions) VH: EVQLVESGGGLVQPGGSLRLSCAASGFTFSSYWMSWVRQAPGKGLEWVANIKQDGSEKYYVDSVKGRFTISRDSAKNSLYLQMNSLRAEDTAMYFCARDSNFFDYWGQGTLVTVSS VL: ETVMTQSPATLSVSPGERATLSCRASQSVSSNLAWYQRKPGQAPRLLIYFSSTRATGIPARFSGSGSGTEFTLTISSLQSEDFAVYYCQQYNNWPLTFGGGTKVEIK
-- reply 3.47

-- ask Any idea what OD450 was measured for 18D2H2 (TIM-3 antibody purified from hybridoma, chimeric antibody of Example 2) (antibody, V domains shown, From hybridoma of Harbour H2L2 transgenic mice: human variable regions, rat constant regions) VH: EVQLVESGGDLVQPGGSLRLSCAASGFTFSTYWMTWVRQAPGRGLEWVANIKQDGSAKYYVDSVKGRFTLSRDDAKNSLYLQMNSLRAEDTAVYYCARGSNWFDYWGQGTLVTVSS VL: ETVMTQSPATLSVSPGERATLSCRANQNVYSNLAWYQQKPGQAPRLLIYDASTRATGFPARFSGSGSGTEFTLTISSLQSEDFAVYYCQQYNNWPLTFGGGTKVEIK ?
-- reply 3.44

Hey, just so you know, these numbers are from patent US20220033501A1.
